Where do the numbers come from? From ChEMBL document CHEMBL1649209.

System: Plasmodium falciparum
Test: Antimalarial activity against Plasmodium falciparum Pf3D70087/N9 infected in immunodeficient HM-IL2Rgamma null mouse after 7 days
Assay type: functional
Reported ED90 values for the following compounds.

compound | ED90 (mg/kg)
Cc1[nH]c(CO)c(-c2ccc(Oc3ccc(OC(F)(F)F)cc3)cc2)c(=O)c1Cl | 0.6
C[C@H]1[C@H](OC(=O)CCC(=O)O)O[C@@H]2O[C@@]3(C)CC[C@H]4[C@H](C)CC[C@@H]1[C@@]24OO3 [ARTESUNATE] | 12.9
CCN(CC)CCCC(C)Nc1ccnc2cc(Cl)ccc12 (centres undefined) [CHLOROQUINE] | 4.9
CCc1nc(N)nc(N)c1-c1ccc(Cl)cc1 [PYRIMETHAMINE] | 0.5
